Every entry's value here was drawn from PubChem BioAssay.

# maps each entry to its viability
# ASSAY PROCEDURE: SK-BR-3 cell growth inhibitors, pilot screen, 24 h, human (AID 572);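 further: compound exposure lasted between 18 and 24 h rather than exactly 24 h; 100% = carrier-treated control wells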
# ASSAY CONDITIONS: SK-BR-3 viability, CellTiter-Glo luminescence, at 10 µM, stronger effect = lower value
Answer in %, number only, no unit symbol.

* COc1cc2c(C#N)c(N3CCOCC3)nc(N)c2c(N)n1 | 85
* CCCCOc1ccccc1NC(=O)c1ccco1 | 87
* C=CCOC(=O)CC(NC(=O)c1ccccc1)c1ccccc1 (stereo not given) | 110

Could you share which viability value was measured for Cc1c(NC(=O)c2nn(C)c(=O)c3ccccc23)c(=O)n(-c2ccccc2)n1C ? 94

Could you tell me which viability is on file for O=c1oc2cc(O)ccc2c2oc3cc(O)ccc3c12 ? 108
